Molecular target: HIV-1 protease (Human immunodeficiency virus type 1 group M subtype B)
Construct: made in house; host or cells: E. coli K12 L507/pHP10D (NRRL B-18560)
Experiment: biochemical
Conditions: read-out: Fluorescence Assay IC50 (converted)
Experimental: A culture of E. coli K12 L507/pHP10D was grown to mid-log phase at 32° C. in LB media containing 12.5 μg/ml tetracycline. […] Enzymatic activity was measured by HPLC using the synthetic peptide SQNYPIV as described in Margolin et al., Biochem. Biophys. Res. Commun., […], 554-560 (1990); the production of the p1 peptide (SQNY) was measured. […] The following buffers and solutions are used in the Fluorescence HIV-1 Protease Inhibitor Assay: […]
Measurement Kind: IC50
Number first, unit second: that is the form wanted.

Here is how some compounds turned out for IC50.
Structure String	Assay System	Measurement Kind	Measured Value
C[C@H](NC(=O)OCc1ccccc1)C(=O)N[C@@H](Cc1ccccc1)[C@@H]1O[C@@H]1[C@H](Cc1ccccc1)NC(=O)[C@H](C)NC(=O)OCc1ccccc1	HIV-1 protease (Human immunodeficiency virus type 1 group M subtype B)	IC50	803 nM
CC[C@H](C)[C@H](NC(=O)OCc1ccc2ccccc2n1)C(=O)N[C@@H](Cc1ccccc1)[C@@H]1O[C@@H]1[C@H](Cc1ccccc1)NC(=O)[C@@H](NC(=O)OCc1ccc2ccccc2n1)[C@@H](C)CC	HIV-1 protease (Human immunodeficiency virus type 1 group M subtype B)	IC50	27.3 nM

Turning now to a further record.
query: What IC50 appears in the records for this compound with HIV-1 protease (Human immunodeficiency virus type 1 group M subtype B)? NC(=O)CC[C@H](NC(=O)OCc1ccccc1)C(=O)N[C@@H](Cc1ccccc1)[C@@H]1O[C@@H]1[C@H](Cc1ccccc1)NC(=O)[C@H](CCC(N)=O)NC(=O)OCc1ccccc1
result: 1730 nM
